Recorded values, source patent US8710252B2.

- Test system: human leukemic K562 cells
- measurement protocol: Inhibition of 3H-methyl thymidine incorporation (cell proliferation) in K562 cells
- Format: cell-based
- reported conditions: 6 h treatment; compounds are methyl esters
- Description: The human leukemic K562 cell line was established as previously reported (Qiao et al., 2003). Cells were maintained as suspension cultures in RPMI 1640 medium supplemented with 100 1.1/ml penicillin G, 100 μg/ml streptomycin, 10% (v/v) […] in a humidified atmosphere of 5% CO2 at 37° C. Cell viability was assessed by the exclusion of Trypan blue. […] The filters were washed and counted for radioactivity.
pIC50: −log10 of the molar value.

>  <molecule>
CCCCC/C=C\CC1CC1C(O)/C=C\C/C=C\CCCC(=O)OC (stereo not drawn) [Compound D]

>  <pIC50>
5.28

$$$$
>  <molecule>
CCCCC/C=C\C[C@H]1C[C@@H]1[C@H](O)/C=C\C/C=C\CCCC(=O)OC

>  <pIC50>
5.44

$$$$
>  <molecule>
CCCCC/C=C\CC1CC1C(O)/C=C\C/C=C\CCCC(=O)OC (stereo not drawn) [Compound C]

>  <pIC50>
5.40

$$$$
>  <molecule>
CCCCC/C=C\CC1CC1C(O)/C=C\C/C=C\CCCC(=O)OC (stereo not drawn) [PBT-3, reference compound]

>  <pIC50>
5.34

$$$$
>  <molecule>
CCCCC/C=C\CC1CC1C(O)/C=C\C/C=C\CCCC(=O)OC (stereo not drawn) [PBT-4, reference compound]

>  <pIC50>
5.31

$$$$
>  <molecule>
CCCCC/C=C\CC1CC1C(O)/C=C\C/C=C\CCCC(=O)OC (stereo not drawn) [Compound B]

>  <pIC50>
5.12

$$$$
